Sourced from PubChem BioAssay (NCATS)

- SYSTEM TESTED: Peroxisome proliferator-activated receptor delta (Homo sapiens)
- ASSAY PROTOCOL: qHTS assay for small molecule antagonists of peroxisome proliferator-activated receptor delta signaling (AID 588535)
- TEST CONTEXT: HEK293T PPARd-UAS-bla, beta-lactamase FRET ratio, 18 h; series mostly up to 76.7 µM
- Description: NIH Chemical Genomics Center [NCGC] U.S. Environmental Protection Agency [EPA] National Institutes of Environmental Health Sciences [NIEHS] National Toxicology Program [NTP] NCGC Assay Overview The Peroxisome proliferator-activated receptors (PPARs) are lipid-activated transcription factors of the nuclear receptor superfamily with three distinct subtypes namely PPAR alpha, PPAR delta (also called PPAR beta) and PPAR gamma. […]
Inconclusive results are not listed. The source made the active and inactive calls. The call rests on the fitted dose curve; in most records, active means well fitted inhibition curve with a large enough effect in the signal ratio, with a control signal flat (not every such curve was filed as active); inconclusive means small, poorly fitted or top-dose-only effect, or effect the other way, or a change in a side signal; inactive means no such curve, though single readings can be large or run the other way; the % refers to the signal ratio.
TEST READOUT: outcome

Observe how each entry below is paired with its result.
In [3]: df
Out[3]:
                                   molecule  test_readout     value
0       Nc1ccn([C@H]2CC[C@@H](CO)O2)c(=O)n1       outcome  inactive
1  CC(C)NCC(O)c1ccc(O)c(O)c1 (stereo unspecified)       outcome  inactive
2           C[C@](N)(Cc1ccc(O)c(O)c1)C(=O)O       outcome  inactive
3              CCOC(=O)C(C)(C)Oc1ccc(Cl)cc1       outcome  inactive
4  Clc1ccc(C(c2ccccc2Cl)C(Cl)Cl)cc1 (stereo unspecified)       outcome  inactive

Data request: If you can, please state the reported outcome value of CC(C)Cc1ccc(C(C)C(=O)O)cc1 (stereo unspecified) .
Data returned: inactive

* * *

- System: Es-2
- ASSAY PROTOCOL: Primary qHTS to identify gynecologic anti-cancer compounds using libraries of approved drugs and bioactive compounds (AID 1345084); further: nearly all actives have a fitted effect of over 55% in size
- TEST CONTEXT: Gynecologic cancer cell panel viability, ATPlite luminescence, 48 h; series mostly up to 57.5 µM
Records with an inconclusive call do not appear. Calls of active or inactive are those of the source. The call rests on the fitted dose curve; in most records, active means well fitted cell-killing curve with a large enough effect; inconclusive means small, poorly fitted or top-dose-only effect, or effect the other way; inactive means flat fitted curve, though single readings scatter.
Your answer must be one of the following: active, inactive

Sample answers from the record:
COMPOUND	SYSTEM TESTED	LABEL
CC1COc2c(N3CCN(C)CC3)c(F)cc3c(=O)c(C(=O)O)cn1c23 (stereo not drawn)	Es-2	inactive
COc1cc2nc(N(C)CCCNC(=O)C3CCCO3)nc(N)c2cc1OC (stereo not drawn)	Es-2	inactive

Data request: # outcome recorded in this test, key = CN1CCN(CCCN2c3ccccc3Sc3ccc(Cl)cc32)CC1
Data returned: inactive

Data request: Could you do the same for CN1C(C(=O)Nc2ccccn2)=C(O)c2ccccc2S1(=O)=O , please?
Data returned: inactive

Data request: Could you do the same for O=C(Nc1ccc([N+](=O)[O-])cc1Cl)c1cc(Cl)ccc1O , please?
Data returned: active

Data request: Could you do the same for O=C(C1CCCCC1)N1CC(=O)N2CCc3ccccc3C2C1 (stereo not drawn) , please?
Data returned: inactive

Data request: Could you do the same for O=c1c(O)c(-c2ccc(O)c(O)c2)oc2cc(O)cc(O)c12 , please?
Data returned: inactive

Data request: Could you do the same for CCOC(=O)Nc1ccc(NCc2ccc(F)cc2)nc1N , please?
Data returned: inactive

Data request: Could you do the same for Cc1ccc(C(=O)Nc2ccc(S(=O)(=O)O)c3cc(S(=O)(=O)O)cc(S(=O)(=O)O)c23)cc1NC(=O)c1cccc(NC(=O)Nc2cccc(C(=O)Nc3cc(C(=O)Nc4ccc(S(=O)(=O)O)c5cc(S(=O)(=O)O)cc(S(=O)(=O)O)c45)ccc3C)c2)c1 , please?
Data returned: inactive

Data request: Could you do the same for Cc1cn([C@H]2C=C[C@@H](CO)O2)c(=O)[nH]c1=O , please?
Data returned: inactive
